experiment: Oral bioavailability in rat; type: ADME, organism-based; details: in vivo
assay-metric: bioavailability (%)
Please reply with the bare figure in % and do not write the unit itself.

Ask: Which bioavailability is reported for this compound? C[C@H](CC[C@@H](O)C(F)(F)F)[C@H]1CC[C@H]2[C@@H]3CC=C4C[C@@](C)(O)CC[C@]4(C)[C@H]3CC[C@]12C
Result: 18

* * *

test: Metabolic stability in human liver microsomes assessed as intrinsic clearance at 10 uM preincubated for 5 mins followed by NADPH addition and measured upto 65 mins by LC-MS/MS analysis; assay type: ADME, Microsome; conditions: time < 70 min, read-out: CLH
assay-metric: microsomal CLint at 10 µM
In your response, the unit should come after the numeric value.

Ask: If you can, please state the reported microsomal CLint at 10 µM value of C[C@H](CCC(C)(C)O)[C@H]1CC[C@H]2[C@@H]3CC=C4C[C@@](C)(O)CC[C@]4(C)[C@H]3CC[C@]12C .
Result: 13 µL/min/mg

Ask: What does the record list as microsomal CLint at 10 µM for CC(C)[C@@](C)(O)CC[C@@H](C)[C@H]1CC[C@H]2[C@@H]3CC=C4C[C@@](C)(O)CC[C@]4(C)[C@H]3CC[C@]12C ?
Result: 6.8 µL/min/mg

Ask: Can you share its microsomal CLint at 10 µM? I mean this molecule: C[C@H](CC[C@](C)(O)C(F)(F)F)[C@H]1CC[C@H]2[C@@H]3CC=C4C[C@@](C)(O)CC[C@]4(C)[C@H]3CC[C@]12C [DALZANEMDOR]
Result: 10 µL/min/mg

Ask: Could you tell me which microsomal CLint at 10 µM is on file for CC[C@](C)(O)CC[C@@H](C)[C@H]1CC[C@H]2[C@@H]3CC=C4C[C@@](C)(O)CC[C@]4(C)[C@H]3CC[C@]12C ?
Result: 0.14 µL/min/mg

* * *

target: Glutamate NMDA receptor; GRIN1/GRIN2A (Homo sapiens, UniProt Q05586+Q12879); assay: Positive allosteric modulation of recombinant human GluN1/GluN2A receptor stably expressed in HEK293 cells assessed as increase in glycine/L-glutamate-induced channel current at -70 mV holding potential by whole cell patch clamp method; format: cell-based
Sequence (Q12879 whole entry, other chains not shown): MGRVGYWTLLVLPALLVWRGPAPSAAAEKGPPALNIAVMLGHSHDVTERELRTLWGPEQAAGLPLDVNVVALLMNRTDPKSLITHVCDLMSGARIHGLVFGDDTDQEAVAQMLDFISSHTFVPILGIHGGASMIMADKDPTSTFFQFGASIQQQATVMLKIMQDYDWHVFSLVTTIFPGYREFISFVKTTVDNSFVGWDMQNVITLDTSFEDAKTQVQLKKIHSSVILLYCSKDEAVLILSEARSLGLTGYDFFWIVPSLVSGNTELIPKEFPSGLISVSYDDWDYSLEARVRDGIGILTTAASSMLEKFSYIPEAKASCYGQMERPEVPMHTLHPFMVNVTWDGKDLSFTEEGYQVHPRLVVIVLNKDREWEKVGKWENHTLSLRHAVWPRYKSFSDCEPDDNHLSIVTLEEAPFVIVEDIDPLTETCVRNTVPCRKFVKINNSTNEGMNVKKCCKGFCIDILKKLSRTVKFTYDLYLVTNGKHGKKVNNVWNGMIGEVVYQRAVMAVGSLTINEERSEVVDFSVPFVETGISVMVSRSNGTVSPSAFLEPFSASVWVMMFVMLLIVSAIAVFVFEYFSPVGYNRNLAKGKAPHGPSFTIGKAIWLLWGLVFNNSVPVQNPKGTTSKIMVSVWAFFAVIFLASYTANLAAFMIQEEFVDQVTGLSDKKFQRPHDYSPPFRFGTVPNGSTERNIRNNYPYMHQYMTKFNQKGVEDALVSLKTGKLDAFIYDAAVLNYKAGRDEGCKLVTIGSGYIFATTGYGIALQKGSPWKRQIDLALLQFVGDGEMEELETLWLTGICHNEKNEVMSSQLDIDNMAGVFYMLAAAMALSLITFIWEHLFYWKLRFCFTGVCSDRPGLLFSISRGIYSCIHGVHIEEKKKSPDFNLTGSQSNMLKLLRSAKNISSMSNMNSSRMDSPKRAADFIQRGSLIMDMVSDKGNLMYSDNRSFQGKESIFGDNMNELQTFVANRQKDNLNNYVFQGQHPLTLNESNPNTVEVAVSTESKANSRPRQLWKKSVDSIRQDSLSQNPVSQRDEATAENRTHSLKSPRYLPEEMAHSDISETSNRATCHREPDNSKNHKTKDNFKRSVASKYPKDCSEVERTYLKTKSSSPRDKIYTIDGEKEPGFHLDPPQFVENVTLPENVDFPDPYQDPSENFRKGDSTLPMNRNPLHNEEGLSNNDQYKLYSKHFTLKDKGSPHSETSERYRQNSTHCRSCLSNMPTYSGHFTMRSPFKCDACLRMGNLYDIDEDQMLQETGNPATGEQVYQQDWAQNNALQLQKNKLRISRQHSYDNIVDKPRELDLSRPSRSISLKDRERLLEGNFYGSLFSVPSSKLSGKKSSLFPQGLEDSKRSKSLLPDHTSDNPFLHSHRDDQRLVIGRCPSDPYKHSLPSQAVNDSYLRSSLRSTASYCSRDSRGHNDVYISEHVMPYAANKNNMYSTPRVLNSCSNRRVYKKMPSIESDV
Please go through the items and note down their EC50.

Ask: Entry under review: C[C@H](CC[C@@](C)(O)CCO)[C@H]1CC[C@H]2[C@@H]3CC=C4C[C@@](C)(O)CC[C@]4(C)[C@H]3CC[C@]12C . Reported EC50?
Result: > 10 µM

Ask: Request the reported EC50 associated with C[C@H](CC[C@](C)(O)CCO)[C@H]1CC[C@H]2[C@@H]3CC=C4C[C@@](C)(O)CC[C@]4(C)[C@H]3CC[C@]12C
Result: > 10 µM

Ask: Consider the compound C#C[C@@](C)(O)CC[C@@H](C)[C@H]1CC[C@H]2[C@@H]3CC=C4C[C@@](C)(O)CC[C@]4(C)[C@H]3CC[C@]12C and give its measured EC50.
Result: > 10 µM

Ask: Fill in the blank: the reported EC50 of C[C@H](CC[C@](C)(O)C(F)(F)F)[C@H]1CC[C@H]2[C@@H]3CC[C@@H]4C[C@@](C)(O)CC[C@]4(C)[C@H]3CC[C@]12C is ____.
Result: > 10 µM

Ask: // query EC50 value for entry C#C[C@](C)(O)CC[C@@H](C)[C@H]1CC[C@H]2[C@@H]3CC=C4C[C@@](C)(O)CC[C@]4(C)[C@H]3CC[C@]12C
Result: > 10 µM

* * *

biological target: Glutamate NMDA receptor; GRIN1/GRIN2B (Homo sapiens, UniProt Q05586+Q13224); experiment: Positive allosteric modulation of recombinant human GluN1/GluN2B receptor stably expressed in HEK293 cells assessed as increase in glycine/L-glutamate-induced channel current at -70 mV holding potential by whole cell patch clamp method
Sequence (Q13224 whole entry, other chains not shown): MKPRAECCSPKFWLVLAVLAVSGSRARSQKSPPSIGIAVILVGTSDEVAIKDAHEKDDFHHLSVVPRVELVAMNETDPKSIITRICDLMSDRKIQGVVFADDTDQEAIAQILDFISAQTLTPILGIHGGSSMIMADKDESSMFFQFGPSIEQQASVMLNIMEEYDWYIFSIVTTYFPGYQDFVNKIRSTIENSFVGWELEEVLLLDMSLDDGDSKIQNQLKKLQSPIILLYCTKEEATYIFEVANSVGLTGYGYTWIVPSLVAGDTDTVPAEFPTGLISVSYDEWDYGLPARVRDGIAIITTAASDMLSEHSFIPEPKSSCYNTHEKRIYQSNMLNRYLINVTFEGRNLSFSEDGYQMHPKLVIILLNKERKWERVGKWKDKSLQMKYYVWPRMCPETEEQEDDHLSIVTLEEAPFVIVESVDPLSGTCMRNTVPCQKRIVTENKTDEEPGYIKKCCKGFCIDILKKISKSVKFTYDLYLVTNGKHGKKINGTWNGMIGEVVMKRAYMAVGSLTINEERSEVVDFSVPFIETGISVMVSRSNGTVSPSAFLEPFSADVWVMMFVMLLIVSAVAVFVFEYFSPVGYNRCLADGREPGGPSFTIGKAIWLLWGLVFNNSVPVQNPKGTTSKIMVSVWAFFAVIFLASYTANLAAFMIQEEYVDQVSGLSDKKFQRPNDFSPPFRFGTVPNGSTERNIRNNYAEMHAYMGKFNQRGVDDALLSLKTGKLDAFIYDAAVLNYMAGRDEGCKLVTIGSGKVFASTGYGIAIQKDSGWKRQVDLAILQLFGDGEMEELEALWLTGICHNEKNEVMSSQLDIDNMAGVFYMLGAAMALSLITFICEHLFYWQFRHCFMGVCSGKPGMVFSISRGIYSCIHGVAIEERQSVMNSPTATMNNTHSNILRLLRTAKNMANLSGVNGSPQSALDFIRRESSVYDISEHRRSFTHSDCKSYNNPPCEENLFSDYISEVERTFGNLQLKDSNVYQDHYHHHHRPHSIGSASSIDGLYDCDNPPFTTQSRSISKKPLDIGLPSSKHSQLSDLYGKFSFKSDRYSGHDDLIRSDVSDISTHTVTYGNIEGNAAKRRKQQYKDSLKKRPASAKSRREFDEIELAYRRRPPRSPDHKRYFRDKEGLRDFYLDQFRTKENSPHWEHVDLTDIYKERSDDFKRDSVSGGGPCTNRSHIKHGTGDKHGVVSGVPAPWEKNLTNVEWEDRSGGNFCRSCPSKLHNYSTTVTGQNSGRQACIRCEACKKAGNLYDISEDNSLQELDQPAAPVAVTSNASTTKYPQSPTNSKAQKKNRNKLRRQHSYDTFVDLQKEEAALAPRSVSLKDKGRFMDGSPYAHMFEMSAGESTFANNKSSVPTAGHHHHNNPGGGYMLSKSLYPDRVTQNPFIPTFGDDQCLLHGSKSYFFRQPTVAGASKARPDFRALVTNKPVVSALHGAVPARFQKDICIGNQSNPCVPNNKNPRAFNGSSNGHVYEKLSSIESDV
pEC50: −log10 of the molar value.
assay-metric: pEC50

Ask: What does the data say about its pEC50? Entry: C#C[C@](C)(O)CC[C@@H](C)[C@H]1CC[C@H]2[C@@H]3CC=C4C[C@@](C)(O)CC[C@]4(C)[C@H]3CC[C@]12C
Result: < 5.00

Ask: Sample C[C@H](CC[C@@](C)(O)CCO)[C@H]1CC[C@H]2[C@@H]3CC=C4C[C@@](C)(O)CC[C@]4(C)[C@H]3CC[C@]12C — what was its pEC50?
Result: < 5.00

Ask: Name the reported pEC50 value associated with the molecule C[C@H](CC[C@](C)(O)CCO)[C@H]1CC[C@H]2[C@@H]3CC=C4C[C@@](C)(O)CC[C@]4(C)[C@H]3CC[C@]12C
Result: < 5.00
